Where do the numbers come from? From PubChem BioAssay AID1159580.

# protocol: chemical genetic growth profiling, strain panel (AID 1159580);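 also: tested at 20 µM; growth read once vehicle control cultures reached saturation at 30 °C; 1 = growth at the plate median or of vehicle wells; lower values mean less growth of the strain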
# condition_parameters: S. cerevisiae deletion strains, growth OD, locus YOR184W, strain ser1, stronger effect = lower value
Among all 5,500 compounds or so, about 2,000 (36%) were called active. Inconclusive results (about 18%) are left out. Some of the results follow.
measurement_name: normalized growth
Would you mind answering with just the numeric figure?

Inquiry: Param item = NC[C@H]1O[C@H](OC2[C@@H](N)C[C@@H](N)[C@H](O[C@H]3O[C@H](CO)[C@@H](O)[C@H](N)[C@H]3O)[C@H]2O)[C@H](O)[C@@H](O)[C@@H]1O (stereo not given in full) ; retrieve measured normalized growth.
Reply text: 0.971

Inquiry: Param item = C[C@@H]1O[C@@H](O[C@H]2CC[C@]3(C=O)C4CC[C@]5(C)[C@@H](C6=CC(=O)OC6)CC[C@]5(O)C4CC[C@]3(O)C2)[C@H](O)[C@H](O)[C@H]1O (stereo not given in full) ; retrieve measured normalized growth.
Reply text: 0.975

Inquiry: Param item = COC1C(O)C(O[C@H]2CC[C@]3(C=O)C4C(CC[C@]3(O)C2)[C@@]2(O)CC[C@H](C3=CC(=O)OC3)[C@@]2(C)C[C@H]4OC(C)=O)OC(C)C1OC(C)=O (stereo not given in full) ; retrieve measured normalized growth.
Reply text: 1.05

Inquiry: Param item = C[C@H]1OC(O[C@H]2[C@@H](O)CC(O[C@H]3[C@@H](O)C[C@H](O[C@H]4CC[C@]5(C)C6CC[C@]7(C)[C@@H](C8=CC(=O)OC8)[C@@H](O)C[C@]7(O)[C@@H]6CC[C@@H]5C4)O[C@@H]3C)O[C@@H]2C)C[C@H](O)C1O (stereo not given in full) ; retrieve measured normalized growth.
Reply text: 0.983

Inquiry: Param item = CO[C@H]1[C@H](O)[C@@H](O[C@H]2CC[C@]3(C=O)C4CC[C@]5(C)[C@@H](C6=CC(=O)OC6)CC[C@]5(O)C4CC[C@@H]3C2)O[C@@H](C)[C@@H]1O (stereo not given in full) ; retrieve measured normalized growth.
Reply text: 0.981
